All figures here come from patent US10364256B2.

Reported IC50 values are given for each entry in this list.
Molecular target: full length Keap1 protein / full length NRF2 protein (Homo sapiens)
Construct: full length NRF2 protein and full length Keap1 protein (Keap1 exists a dimer) are used; His
Experiment: NRF2-Keap1 TR-FRET Low Protein Assay
Type: binding
Settings: 1.25 nM Keap1 FlagHis and 2.5 nM biotin-NRF2 added

{"molecule": "CC1CCC(C)N(C(=O)c2cccc(-c3cccc(-n4ncc(C(=O)O)c4C4CC4)c3)c2F)C1 (stereo not drawn)", "IC50": "0.1 to 1 µM"}
{"molecule": "CC[C@@H]1CN(Cc2cccc(-c3cccc(-n4ncc(C(=O)O)c4[C@H]4C[C@@H]4c4cn(C(C)C)nn4)c3)c2)Cc2ccccc2O1 (racemic)", "IC50": "< 0.01 µM"}
{"molecule": "C[C@H](Oc1cccc(-c2cccc(-n3ncc(C(=O)O)c3[C@@H]3C[C@H]3c3cn(C4CCC4)nn3)c2)c1)C1CCCCC1 (racemic)", "IC50": "0.01 to 0.1 µM"}
{"molecule": "C[C@H](Oc1cccc(-c2cccc(-n3ncc(C(=O)O)c3[C@@H]3C[C@H]3CCCO)c2)c1)C1CCCCC1 (racemic)", "IC50": "1 to 10 µM"}
{"molecule": "Cn1cc([C@@H]2C[C@H]2c2c(C(=O)O)cnn2-c2cccc(-c3cccc(OCC4CCCC(C(F)(F)F)C4)c3)c2)nn1 (mixture of isomers)", "IC50": "0.01 to 0.1 µM"}

// next entry
[in] Give a short answer stating reported IC50 for CC(Oc1cccc(-c2cccc(-n3ncc(C(=O)O)c3C3CC3c3cn(C)nn3)c2)c1)C1CC1 (stereo not drawn) .
[out] 0.01 to 0.1 µM

---

Reported IC50 values are given for each entry in this list.
Target: full length Keap1 protein / full length NRF2 protein (Homo sapiens, UniProt Q14145)
Construct: full length NRF2 protein and full length Keap1 protein (Keap1 exists a dimer) are used; His
Sequence (Q14145 whole entry): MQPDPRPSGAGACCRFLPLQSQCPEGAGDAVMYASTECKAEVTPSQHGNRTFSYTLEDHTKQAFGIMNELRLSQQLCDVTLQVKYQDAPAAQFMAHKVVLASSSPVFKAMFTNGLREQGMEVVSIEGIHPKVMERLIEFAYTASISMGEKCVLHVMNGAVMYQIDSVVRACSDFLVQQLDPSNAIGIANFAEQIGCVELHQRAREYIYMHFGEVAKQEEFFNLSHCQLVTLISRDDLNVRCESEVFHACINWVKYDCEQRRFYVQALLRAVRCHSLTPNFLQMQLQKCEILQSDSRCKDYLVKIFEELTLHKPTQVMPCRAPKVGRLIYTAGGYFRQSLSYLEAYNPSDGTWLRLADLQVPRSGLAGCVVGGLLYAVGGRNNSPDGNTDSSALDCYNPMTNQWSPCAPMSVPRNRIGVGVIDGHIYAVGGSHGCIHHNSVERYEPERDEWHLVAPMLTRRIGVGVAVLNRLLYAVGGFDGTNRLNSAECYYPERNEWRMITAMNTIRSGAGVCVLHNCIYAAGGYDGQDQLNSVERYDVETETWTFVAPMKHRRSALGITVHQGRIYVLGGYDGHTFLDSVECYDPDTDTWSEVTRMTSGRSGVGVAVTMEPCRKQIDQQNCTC
Assay: NRF2-Keap1 TR-FRET Assay
Assay type: binding
Settings: 25 nM Keap1-FlagHis and 50 nM biotin-NRF2 added

{"compound": "O=C(O)c1cnn(-c2cccc(-c3cccc(-n4ncc5c4CCCC5)c3)c2)c1C1CC1 [Example 62]", "experimentalSystem": "full length Keap1 protein / full length NRF2 protein (Homo sapiens, UniProt Q14145)", "IC50": "1 to 10 µM"}
{"compound": "O=C(O)c1cnn(-c2cccc(-c3cccc(C(=O)N(CC4CC4)CC4CC4)c3F)c2)c1C1CC1 [Example 8]", "experimentalSystem": "full length Keap1 protein / full length NRF2 protein (Homo sapiens, UniProt Q14145)", "IC50": "0.1 to 1 µM"}
{"compound": "Cn1cc(C2CC2c2c(C(=O)O)cnn2-c2cccc(-c3cccc(C(O)C4CCCCC4)c3)c2)nn1 (stereo not shown) [Example 220]", "experimentalSystem": "full length Keap1 protein / full length NRF2 protein (Homo sapiens, UniProt Q14145)", "IC50": "0.1 to 1 µM"}

// next entry
[in] Give a short answer stating reported IC50 for COC1CCCCC1COc1cccc(-c2cccc(-n3ncc(C(=O)O)c3[C@H]3C[C@@H]3c3cn(C)nn3)c2)c1 (mixture of isomers) [Example 177] .
[out] 0.1 to 1 µM

---

Target: full length Keap1 protein / full length NRF2 protein (Homo sapiens, UniProt Q14145)
Construct: full length NRF2 protein and full length Keap1 protein (Keap1 exists a dimer) are used; His
Experiment: NRF2-Keap1 TR-FRET Assay
Assay type: binding
Conditions: 25 nM Keap1-FlagHis and 50 nM biotin-NRF2 added
From the text: In the NRF2-Keap1 TR-FRET (time-resolved fluorescence resonance energy transfer) assay, full length NRF2 protein and full length Keap1 protein (Keap1 exists a dimer) are used. The assay detects the ability of compound to displace the binding of FlagHis-tagged Keap1 with biotinylated, Avi-tagged NRF2 protein. […]
pIC50: −log10 of the molar value.
Reported pIC50 values are given for each entry in this list.

{"molecule": "CCCC1CCCCN1C(=O)c1cccc(-c2cccc(-n3ncc(C(=O)O)c3C3CC3c3cccnn3)c2)c1 (stereo not shown)", "experimentalSystem": "full length Keap1 protein / full length NRF2 protein (Homo sapiens, UniProt Q14145)", "pIC50": "7.00 to 8.00"}
{"molecule": "Cn1cc([C@@H]2C[C@H]2c2c(C(=O)O)cnn2-c2cccc(-c3cccc(OCC4CCCCC4)c3F)c2)nn1 (racemic)", "experimentalSystem": "full length Keap1 protein / full length NRF2 protein (Homo sapiens, UniProt Q14145)", "pIC50": "6.00 to 7.00"}
{"molecule": "CCC[C@@H]1CCCCN1C(=O)c1cncc(-c2cccc(-n3ncc(C(=O)O)c3C3CC3c3cn(C)nn3)c2)c1 (stereo partly shown)", "experimentalSystem": "full length Keap1 protein / full length NRF2 protein (Homo sapiens, UniProt Q14145)", "pIC50": "7.00 to 8.00"}
{"molecule": "CCC[C@@H]1CCCCN1C(=O)c1cccc(-c2cccc(-n3nc(C)c(C(=O)O)c3C3CC3c3cn(C)nn3)c2)c1 (stereo partly shown)", "experimentalSystem": "full length Keap1 protein / full length NRF2 protein (Homo sapiens, UniProt Q14145)", "pIC50": "7.00 to 8.00"}
{"molecule": "Cc1nn(-c2cccc(-c3cccc(OCC4CCCCC4)c3)c2)c(C2CC2c2cn(C)nn2)c1C(=O)O (stereo not shown)", "experimentalSystem": "full length Keap1 protein / full length NRF2 protein (Homo sapiens, UniProt Q14145)", "pIC50": "5.00 to 6.00"}
{"molecule": "CCCC1CCCCN1C(=O)c1cccc(-c2cccc(-n3ncc(C(=O)O)c3CCc3cn(C)nn3)c2)c1F (stereo not shown)", "experimentalSystem": "full length Keap1 protein / full length NRF2 protein (Homo sapiens, UniProt Q14145)", "pIC50": "6.00 to 7.00"}

[in] Give a short answer stating reported pIC50 for CC(Oc1cccc(-c2cccc(-n3ncc(C(=O)O)c3[C@@H]3C[C@H]3c3cn(C)nn3)c2)c1)C1CCCCC1 (stereo partly shown) .
[out] 5.00 to 6.00

---

Reported IC50 values are given for each entry in this list.
Molecular target: full length Keap1 protein / full length NRF2 protein (Homo sapiens, UniProt Q14145)
Construct: full length NRF2 protein and full length Keap1 protein (Keap1 exists a dimer) are used; His
Test: NRF2-Keap1 TR-FRET Assay
Format: binding
Details: 25 nM Keap1-FlagHis and 50 nM biotin-NRF2 added

// below: answered compounds
{"compound": "O=C(O)c1cnn(-c2cccc(-c3cccc(C4CCCO4)c3)c2)c1C1CC1 (stereo not drawn)", "experimentalSystem": "full length Keap1 protein / full length NRF2 protein (Homo sapiens, UniProt Q14145)", "IC50": "> 100000 nM"}
{"compound": "Cn1cc(C2CC2c2c(C(=O)O)cnn2-c2cccc(-c3cccc(CCC4CCCCC4)c3)c2)nn1 (stereo not drawn)", "experimentalSystem": "full length Keap1 protein / full length NRF2 protein (Homo sapiens, UniProt Q14145)", "IC50": "100 to 1000 nM"}
{"compound": "Cn1cc(CCc2c(C(=O)O)cnn2-c2cccc(-c3cccc(OCC4CCCCC4)c3)c2)nn1", "experimentalSystem": "full length Keap1 protein / full length NRF2 protein (Homo sapiens, UniProt Q14145)", "IC50": "10000 to 100000 nM"}
{"compound": "CCC1CCC(COc2cccc(-c3cccc(-n4ncc(C(=O)O)c4[C@@H]4C[C@H]4c4cn(C)nn4)c3)c2)CC1 (mixture of isomers)", "experimentalSystem": "full length Keap1 protein / full length NRF2 protein (Homo sapiens, UniProt Q14145)", "IC50": "100 to 1000 nM"}

[in] Give a short answer stating reported IC50 for Cn1cc(C2CC2c2c(C(=O)O)cnn2-c2cccc(-c3cccc(C(=O)CC4CCCCC4)c3)c2)nn1 (stereo not drawn) .
[out] 100 to 1000 nM

[in] Give a short answer stating reported IC50 for CCC[C@@H]1CCCCN1C(=O)c1cccc(-c2cccc(-n3ncc(C(=O)O)c3C3CC3c3cnn(C)c3)c2)c1 (stereo partly drawn) .
[out] 10 to 100 nM

[in] Give a short answer stating reported IC50 for CCCC1CCCCN1C(=O)c1cccc(-c2cccc(-n3ncc(C(=O)O)c3C3CC3)c2)c1F (stereo in doubt) [Example 54d] .
[out] 1000 to 10000 nM

---

Biological target: Keap1 Kelch domain (321-609) / TAMRA-labeled 16mer NRF2 peptide (ETGE motif) (Homo sapiens, UniProt Q14145)
Construct: the Kelch domain (321-609) of Keap1 is used
Sequence (Q14145 321-609): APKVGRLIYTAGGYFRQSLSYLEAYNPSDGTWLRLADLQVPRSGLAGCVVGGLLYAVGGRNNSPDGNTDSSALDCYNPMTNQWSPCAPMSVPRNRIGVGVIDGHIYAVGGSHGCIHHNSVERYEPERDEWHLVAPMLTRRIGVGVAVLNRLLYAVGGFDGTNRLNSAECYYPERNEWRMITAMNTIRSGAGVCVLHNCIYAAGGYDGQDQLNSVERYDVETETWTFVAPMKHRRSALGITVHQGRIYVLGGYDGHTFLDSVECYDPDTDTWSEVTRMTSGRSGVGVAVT
Test: NRF2-Keap1 FP Assay (Keap1 Kelch fluorescence polarization)
Details: 20 nM Keap1 (321-609), 8 nM Tamra labeled peptide
Description: One model for the NRF2-Keap1 interaction is through two binding sites in the Neh2 domain on NRF2. The two sites are referred to as the DLG binding motif (latch domain, uM affinity) and the ETGE binding motif (hinge domain, nM affinity). […] In the Keap1 Kelch fluorescence polarization (FP) assay, a TAMRA-labeled 16mer peptide (AFFAQLQLDEETGEFL) containing the ETGE motif of NRF2 and the Kelch domain (321-609) of Keap1 is used. […]
measuredParameter: IC50

// below: answered molecules
{"molecule": "CCOC[C@H]1CCCN1C(=O)c1cccc(-c2cccc(-n3ncc(C(=O)O)c3[C@@H]3C[C@H]3c3cn(C)nn3)c2)c1F", "IC50": "10 to 100 nM"}
{"molecule": "C[C@H]1Cc2ccc(Br)cc2S(=O)(=O)N(Cc2cccc(-c3cccc(-n4ncc(C(=O)O)c4[C@@H]4C[C@H]4c4cn(C)nn4)c3)c2)C1 (single isomer, unassigned; isomer 1)", "IC50": "10 to 100 nM"}
{"molecule": "CCCN(CC1CC1)C(=O)c1cccc(-c2cccc(-n3ncc(C(=O)O)c3C3CC3)c2)c1Cl", "IC50": "100 to 1000 nM"}
{"molecule": "Cn1cc([C@H]2C[C@@H]2c2c(C(=O)O)cnn2-c2cccc(-c3cccc(OCc4cncnc4)c3)c2)nn1 (racemic)", "IC50": "100 to 1000 nM"}
{"molecule": "CCC[C@@H]1CCCCN1C(=O)c1cccc(-c2cccc(-n3ncc(C(=O)O)c3C3CC3c3cn(C)nn3)c2)c1F (some centres unmarked)", "IC50": "10 to 100 nM"}
{"molecule": "C[C@H](Oc1cccc(-c2cccc(-n3ncc(C(=O)OCCO)c3[C@@H]3C[C@H]3c3cn(C)nn3)c2)c1)C1CCCCC1", "IC50": "> 10000 nM"}

[in] Give a short answer stating reported IC50 for CN1CCN(Cc2cccc(-c3cccc(-n4ncc(C(=O)O)c4[C@@H]4C[C@H]4c4cn(C)nn4)c3)c2)S(=O)(=O)c2ccccc21 (racemic) .
[out] 10 to 100 nM

[in] Give a short answer stating reported IC50 for CC(Oc1cccc(-c2cccc(-n3ncc(C(=O)O)c3[C@H]3C[C@@H]3c3cn(C)nn3)c2)c1)c1cccc(-c2ccccc2)c1 (mixture of isomers) .
[out] 100 to 1000 nM
